The reported numbers originate from ChEMBL document CHEMBL1152701.

# system.tested: UniProtKB P56817
# assay: Inhibition of human recombinant C-terminal histidine-tagged BACE1 expressed in baculovirus-infected insect cells by FRET assay
reported.metric: IC50 (µM)
Answers are plain numbers, in µM.

Known results for molecules:
smiles.data | IC50, µM
C[C@@H](NC(=O)c1cc(C(=O)N[C@@H](Cc2ccccc2)[C@H](O)CNCCC2CCN(Cc3ccccc3)CC2)cc(N(C)S(C)(=O)=O)c1)c1ccc(F)cc1 | 0.222
CC(C)C[C@H](NC(=O)c1cc(C(=O)N[C@H](C)c2ccc(F)cc2)cc(N(C)S(C)(=O)=O)c1)[C@@H](O)C[C@@H](C)C(=O)NC1CCN(Cc2ccccc2)CC1 | 1.5
C[C@@H](NC(=O)c1cc(C(=O)N[C@@H](Cc2ccccc2)[C@H](O)CNCCC2CCN(Cc3ccccc3)CC2)cc([N+](=O)[O-])c1)c1ccc(F)cc1 | 2.68
C[C@@H](NC(=O)c1cc(C(=O)N[C@@H](Cc2ccccc2)[C@H](O)CNCCC2CCN(Cc3ccccc3)CC2)cc([N+](=O)[O-])c1)c1ccccc1 | 7.02
C[C@@H](NC(=O)c1cc(C(=O)N[C@@H](Cc2ccccc2)[C@H](O)CNCC2CCN(Cc3ccccc3)CC2)cc(N(C)S(C)(=O)=O)c1)c1ccccc1 | 4

For every item in the list below, what is its measured IC50?
1. C[C@@H](NC(=O)c1cc(C(=O)N[C@@H](Cc2ccccc2)[C@H](O)CNCCC2CCN(Cc3ccccc3)CC2)cc(N(C)S(C)(=O)=O)c1)c1ccccc1
2. C[C@@H](NC(=O)c1cc(C(=O)N[C@@H](Cc2ccccc2)[C@H](O)CNC2CCN(Cc3ccccc3)CC2)cc(N(C)S(C)(=O)=O)c1)c1ccc(F)cc1

1. 0.567
2. 0.771

###

Can you tell me IC50 for the items I'm about to list?
# system.tested: Beta-secretase 1 (Homo sapiens, UniProt P56817)
# Sequence (P56817 whole entry): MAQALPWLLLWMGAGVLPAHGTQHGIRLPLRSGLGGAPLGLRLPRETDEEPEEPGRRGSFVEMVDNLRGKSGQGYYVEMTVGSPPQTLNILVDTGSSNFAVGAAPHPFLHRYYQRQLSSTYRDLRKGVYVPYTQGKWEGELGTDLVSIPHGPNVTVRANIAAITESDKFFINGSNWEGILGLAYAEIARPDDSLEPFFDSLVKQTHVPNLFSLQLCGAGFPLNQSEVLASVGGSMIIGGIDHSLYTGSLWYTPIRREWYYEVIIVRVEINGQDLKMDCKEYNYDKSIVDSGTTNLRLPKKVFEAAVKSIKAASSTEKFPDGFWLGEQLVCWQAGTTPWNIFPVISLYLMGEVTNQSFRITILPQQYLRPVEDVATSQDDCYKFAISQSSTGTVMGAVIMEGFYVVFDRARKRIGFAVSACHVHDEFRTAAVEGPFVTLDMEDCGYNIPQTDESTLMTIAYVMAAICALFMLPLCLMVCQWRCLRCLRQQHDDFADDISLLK
# assay: Inhibition of human recombinant C-terminal histidine-tagged BACE1 expressed in baculovirus-infected insect cells by FRET assay
Write the figure, then the unit, nothing else.

smiles.data | IC50
C[C@@H](NC(=O)c1cc(C(=O)N[C@@H](Cc2ccccc2)[C@H](O)CNCC2CCN(Cc3ccccc3)CC2)cc(N(C)S(C)(=O)=O)c1)c1ccc(F)cc1 | 3230 nM
C[C@@H](NC(=O)c1cc(C(=O)N[C@@H](Cc2ccccc2)[C@H](O)CNC2CCN(Cc3ccccc3)CC2)cc(N(C)S(C)(=O)=O)c1)c1ccccc1 | 511 nM
CC(C)C[C@H](NC(=O)c1cc(C(=O)N[C@H](C)c2ccc(F)cc2)cc(N(C)S(C)(=O)=O)c1)[C@@H](O)C[C@@H](C)C(=O)NCCC1CCN(Cc2ccccc2)CC1 | 1340 nM
C[C@@H](NC(=O)c1cc(C(=O)N[C@H](CO)Cc2ccccc2)cc(N(C)S(C)(=O)=O)c1)c1ccc(F)cc1 | 462 nM
CCCN(CCC)C(=O)c1cc(C(=O)N[C@@H](Cc2ccccc2)[C@H](O)CNCCC2CCN(Cc3ccccc3)CC2)cc(N(C)S(C)(=O)=O)c1 | 2390 nM
CC(C)C[C@H](NC(=O)c1cc(C(=O)N[C@H](C)c2ccc(F)cc2)cc(N(C)S(C)(=O)=O)c1)[C@@H](O)C[C@@H](C)C(=O)NCC1CCN(Cc2ccccc2)CC1 | 616 nM

Name the recorded IC50 of the compound listed here: CC(C)C[C@H](NC(=O)c1cc(C(=O)N[C@H](C)c2ccccc2)cc(N(C)S(C)(=O)=O)c1)[C@@H](O)C[C@@H](C)C(=O)NC1CCN(Cc2ccccc2)CC1
1540 nM
